Target: CDK7/Cyclin H/MAT1 complex (Homo sapiens)
Sequence (P50613 whole entry, species assumed): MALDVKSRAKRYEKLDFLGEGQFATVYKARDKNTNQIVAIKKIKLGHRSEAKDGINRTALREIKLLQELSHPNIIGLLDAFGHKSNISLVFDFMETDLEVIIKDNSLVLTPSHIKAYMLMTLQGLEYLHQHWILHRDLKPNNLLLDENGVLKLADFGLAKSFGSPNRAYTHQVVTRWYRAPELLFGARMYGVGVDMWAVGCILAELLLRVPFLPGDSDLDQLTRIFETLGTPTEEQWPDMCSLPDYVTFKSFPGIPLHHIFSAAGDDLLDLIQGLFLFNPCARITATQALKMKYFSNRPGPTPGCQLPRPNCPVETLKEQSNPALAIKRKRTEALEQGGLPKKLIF
Sequence (P51946 whole entry partner, species assumed): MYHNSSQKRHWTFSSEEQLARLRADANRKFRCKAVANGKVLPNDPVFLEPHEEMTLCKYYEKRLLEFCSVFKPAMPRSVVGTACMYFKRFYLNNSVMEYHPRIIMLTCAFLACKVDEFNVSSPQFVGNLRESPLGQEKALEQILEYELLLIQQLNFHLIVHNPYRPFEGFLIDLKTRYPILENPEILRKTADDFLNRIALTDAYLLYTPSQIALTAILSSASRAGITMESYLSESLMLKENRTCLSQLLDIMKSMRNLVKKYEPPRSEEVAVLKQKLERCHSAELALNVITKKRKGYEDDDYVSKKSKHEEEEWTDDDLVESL
Sequence (P51948 whole entry partner, species assumed): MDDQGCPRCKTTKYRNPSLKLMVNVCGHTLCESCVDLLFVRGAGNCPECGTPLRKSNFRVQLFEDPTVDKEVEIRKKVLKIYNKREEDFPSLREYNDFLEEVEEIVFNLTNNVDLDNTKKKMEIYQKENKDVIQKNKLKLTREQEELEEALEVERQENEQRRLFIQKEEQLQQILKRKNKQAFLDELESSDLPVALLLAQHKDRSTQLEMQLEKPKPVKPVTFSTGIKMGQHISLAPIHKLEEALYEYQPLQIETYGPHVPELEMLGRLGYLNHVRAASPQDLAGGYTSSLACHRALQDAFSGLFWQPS
Experiment: CDK7 inhibition assay (Caliper/LabChip EZ Reader kinase assay)
Assay type: biochemical
Conditions: Table 1; CDK7/Cyclin H/MAT1 6 nM, ATP 2 mM, 35 min at 27° C.
pIC50: −log10 of the molar value.
REPORTED METRIC: pIC50

Here is how some compounds turned out for pIC50.
COMPOUND: CC1(C)CNC[C@@H](Nc2ncc(C(F)(F)F)c(-c3c[nH]c4ccccc34)n2)C1 [Compound 243]
pIC50: > 7.70

COMPOUND: COC(C)c1cnc(N[C@H]2CCCNC2)nc1-c1c[nH]c2ccccc12 (stereo partly drawn) [Compound 247]
pIC50: 5.30 to 6.70

COMPOUND: C[C@H]1CNC[C@@H](Nc2ncc(Cl)c(-c3c[nH]c4ccccc34)n2)C1 [Compound 201]
pIC50: > 7.70

COMPOUND: CC[C@@H]1CC[C@H](Nc2ncc(C(F)(F)F)c(-c3c[nH]c4ccccc34)n2)CN1 [Compound 211]
pIC50: 6.70 to 7.70

Task: Provide one value: measured pIC50 of CS(=O)(=O)c1cccn2c([C@H]3CCC[C@@H](Nc4ncc(C(F)(F)F)c(-c5c[nH]c6ccccc56)n4)C3)nnc12 [Compound 265]
Result: 5.30 to 6.70

Task: Provide one value: measured pIC50 of CCc1cnc(N[C@H]2CCCNC2)nc1-c1c[nH]c2ncc(F)cc12 [Compound 270]
Result: > 7.70

Task: Provide one value: measured pIC50 of N#Cc1ccc2c(-c3nc(N[C@H]4CCCNC4)ncc3C(F)(F)F)c[nH]c2c1-c1ccnnc1 [Compound 261]
Result: 6.70 to 7.70

====

Target: CDK12 (aa686-1082)/Cyclin K complex (Homo sapiens, UniProt Q9NYV4)
Construct: CDK12 (aa686-1082)/Cyclin K complex
Sequence (Q9NYV4 686-1082, species assumed): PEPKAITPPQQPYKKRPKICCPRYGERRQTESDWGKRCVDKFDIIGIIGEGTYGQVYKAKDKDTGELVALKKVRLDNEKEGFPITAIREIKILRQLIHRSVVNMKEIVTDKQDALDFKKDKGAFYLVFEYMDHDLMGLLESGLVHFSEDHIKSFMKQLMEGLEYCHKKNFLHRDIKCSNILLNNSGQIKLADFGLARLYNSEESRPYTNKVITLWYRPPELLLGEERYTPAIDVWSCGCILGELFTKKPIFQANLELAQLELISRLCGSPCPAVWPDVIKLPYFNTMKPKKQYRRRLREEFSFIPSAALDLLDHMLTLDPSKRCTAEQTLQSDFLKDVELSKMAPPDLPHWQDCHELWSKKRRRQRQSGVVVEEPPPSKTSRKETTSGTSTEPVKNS
Sequence (O75909 whole entry partner, species assumed, the tested form may be a part): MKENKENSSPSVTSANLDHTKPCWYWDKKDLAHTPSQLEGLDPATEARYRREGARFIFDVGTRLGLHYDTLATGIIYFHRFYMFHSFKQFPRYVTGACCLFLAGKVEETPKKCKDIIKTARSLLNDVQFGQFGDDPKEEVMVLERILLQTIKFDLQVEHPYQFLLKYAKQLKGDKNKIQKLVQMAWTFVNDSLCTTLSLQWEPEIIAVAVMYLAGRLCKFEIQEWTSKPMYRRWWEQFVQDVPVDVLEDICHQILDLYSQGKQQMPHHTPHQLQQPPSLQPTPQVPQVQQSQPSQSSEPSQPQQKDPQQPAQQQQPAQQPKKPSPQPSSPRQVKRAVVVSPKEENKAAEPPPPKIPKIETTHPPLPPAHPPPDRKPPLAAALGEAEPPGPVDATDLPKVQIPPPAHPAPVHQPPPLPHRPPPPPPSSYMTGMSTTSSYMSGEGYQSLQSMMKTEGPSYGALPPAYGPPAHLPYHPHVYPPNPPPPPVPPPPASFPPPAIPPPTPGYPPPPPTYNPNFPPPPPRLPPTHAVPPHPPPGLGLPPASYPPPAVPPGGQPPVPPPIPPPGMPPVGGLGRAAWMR
Experiment: CDK12 inhibition assay (Caliper/LabChip EZ Reader kinase assay)
Assay type: biochemical
Conditions: Table 1; CDK12 (aa686-1082)/Cyclin K 50 nM, ATP 2 mM, 3 hr at 27° C.; listed as 139
pIC50: −log10 of the molar value.
REPORTED METRIC: pIC50

Task: Provide one value: measured pIC50 of O=c1[nH]cc(-c2ccc3c(-c4nc(N[C@H]5CCCNC5)ncc4C(F)(F)F)c[nH]c3c2)c(=O)[nH]1
Result: < 5.30

====

Target: CDK9/Cyclin T1 complex (Homo sapiens)
Experiment: CDK9 inhibition assay (Caliper/LabChip EZ Reader kinase assay)
Type: biochemical
Details: Table 1; CDK9/Cyclin T1 8 nM, ATP 2 mM, 15 min at 27° C.
pIC50: −log10 of the molar value.
REPORTED METRIC: pIC50

COMPOUND: CC1CCNCC1Nc1ncc(C(F)(F)F)c(-c2c[nH]c3ccccc23)n1 (single isomer, unassigned) [Compound 372]
pIC50: 5.30 to 6.70

COMPOUND: FC(F)(F)c1cnc(N[C@H]2CCC3(CC3)NC2)nc1-c1c[nH]c2ccccc12
pIC50: 5.30 to 6.70

COMPOUND: Cc1noc([C@H]2CC[C@H](Nc3ncc(C(F)(F)F)c(-c4c[nH]c5cc(C#N)ccc45)n3)CN2)n1
pIC50: < 5.30

COMPOUND: Cc1nn(C)cc1-c1cccc2c(-c3nc(N[C@H]4CCCNC4)ncc3C(F)(F)F)c[nH]c12
pIC50: 5.30 to 6.70

COMPOUND: N#C[C@H]1CCN(C(=O)c2ccc3c(-c4nc(N[C@H]5CCCNC5)ncc4C(F)(F)F)c[nH]c3c2)C1
pIC50: 5.30 to 6.70

COMPOUND: O=C1CC[C@H](Nc2ncc(Cl)c(-c3c[nH]c4ccccc34)n2)CN1
pIC50: 5.30 to 6.70

Task: Provide one value: measured pIC50 of CC(=O)NCc1cccc(-c2ccc3c(-c4nc(N[C@H]5CCCNC5)ncc4C(F)(F)F)c[nH]c3c2)c1
Result: 5.30 to 6.70

Task: Provide one value: measured pIC50 of Cc1nc(-c2ccc3c(-c4nc(N[C@H]5CCCNC5)ncc4C(F)(F)F)c[nH]c3c2)nn1C
Result: < 5.30

====

Consider the following compounds and their measured pIC50 readings.
Molecular target: CDK7/Cyclin H/MAT1 complex (Homo sapiens)
Test: CDK7 inhibition assay (Caliper/LabChip EZ Reader kinase assay)
Assay type: biochemical
Conditions: Table 1; CDK7/Cyclin H/MAT1 6 nM, ATP 2 mM, 35 min at 27° C.
pIC50: −log10 of the molar value.

COMPOUND: CC(O)c1cnc(NC2CCCNC2)nc1-c1c[nH]c2ccccc12 (single isomer, unassigned) [Compound 238]
pIC50: 5.30 to 6.70

COMPOUND: CC1(C)CC[C@H](Nc2ncc(C(F)(F)F)c(-c3c[nH]c4cc(C#N)ccc34)n2)CN1
pIC50: 6.70 to 7.70

COMPOUND: Cc1n[nH]cc1-c1ccc2c(-c3nc(N[C@H]4CCCNC4)ncc3C(F)(F)F)c[nH]c2c1
pIC50: > 7.70

COMPOUND: FC(F)(F)c1cnc(N[C@H]2CCCNC2)nc1-c1c[nH]c2cc(-c3ccc4ccncc4c3)ccc12
pIC50: 6.70 to 7.70

COMPOUND: Nc1nc2c(-c3ccc4c(-c5nc(N[C@H]6CCCNC6)ncc5C(F)(F)F)c[nH]c4c3)cccc2s1
pIC50: 6.70 to 7.70

Task: Provide one value: measured pIC50 of FC(F)(F)c1cnc(N[C@H]2CCCNC2)nc1-c1c[nH]c2c(-c3cn[nH]c3)cccc12
Result: > 7.70

Task: Provide one value: measured pIC50 of FC(F)Sc1ccc2c(-c3nc(N[C@H]4CCCNC4)ncc3C(F)(F)F)c[nH]c2c1
Result: > 7.70

Task: Provide one value: measured pIC50 of N#Cc1cc(-c2ccc3c(-c4nc(N[C@H]5CCCNC5)ncc4C(F)(F)F)c[nH]c3c2)ccc1O
Result: 6.70 to 7.70

Task: Provide one value: measured pIC50 of CC1(O)CCC(c2cccc3c(-c4nc(N[C@H]5CCCNC5)ncc4C(F)(F)F)c[nH]c23)CC1 (single isomer, unassigned) [Compound 192]
Result: 6.70 to 7.70

Task: Provide one value: measured pIC50 of O=C1CC[C@H](Nc2ncc(Cl)c(-c3c[nH]c4ccccc34)n2)CN1
Result: 6.70 to 7.70

====

Target: CDK9/Cyclin T1 complex (Homo sapiens, UniProt P50750)
Sequence (P50750 whole entry, species assumed): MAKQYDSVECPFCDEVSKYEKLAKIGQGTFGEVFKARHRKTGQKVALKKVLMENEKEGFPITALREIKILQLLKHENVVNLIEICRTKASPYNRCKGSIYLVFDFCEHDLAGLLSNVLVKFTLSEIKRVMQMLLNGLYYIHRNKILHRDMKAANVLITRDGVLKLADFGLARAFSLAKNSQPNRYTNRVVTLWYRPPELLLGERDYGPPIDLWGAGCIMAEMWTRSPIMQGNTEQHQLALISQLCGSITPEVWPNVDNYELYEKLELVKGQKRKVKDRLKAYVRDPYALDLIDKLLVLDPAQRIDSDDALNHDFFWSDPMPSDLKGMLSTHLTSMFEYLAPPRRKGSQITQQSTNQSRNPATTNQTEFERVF
Sequence (O60563 whole entry partner, species assumed): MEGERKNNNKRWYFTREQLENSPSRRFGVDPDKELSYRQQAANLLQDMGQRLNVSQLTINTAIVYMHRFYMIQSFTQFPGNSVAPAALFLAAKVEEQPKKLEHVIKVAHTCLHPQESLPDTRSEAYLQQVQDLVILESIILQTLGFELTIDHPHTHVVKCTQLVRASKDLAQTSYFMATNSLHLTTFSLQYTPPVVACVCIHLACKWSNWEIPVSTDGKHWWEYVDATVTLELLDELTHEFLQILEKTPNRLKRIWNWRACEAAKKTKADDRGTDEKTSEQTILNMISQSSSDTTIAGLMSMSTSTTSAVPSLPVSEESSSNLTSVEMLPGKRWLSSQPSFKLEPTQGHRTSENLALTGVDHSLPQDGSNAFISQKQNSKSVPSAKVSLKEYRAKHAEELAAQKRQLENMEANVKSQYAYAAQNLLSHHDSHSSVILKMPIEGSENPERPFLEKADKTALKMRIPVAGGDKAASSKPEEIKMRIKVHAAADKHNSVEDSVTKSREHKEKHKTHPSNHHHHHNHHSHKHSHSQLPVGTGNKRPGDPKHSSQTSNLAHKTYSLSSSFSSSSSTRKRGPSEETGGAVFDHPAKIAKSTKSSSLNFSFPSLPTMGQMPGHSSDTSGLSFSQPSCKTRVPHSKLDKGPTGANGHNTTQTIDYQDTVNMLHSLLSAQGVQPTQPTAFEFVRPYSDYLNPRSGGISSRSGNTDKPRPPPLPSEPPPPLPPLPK
Experiment: CDK9 inhibition assay (Caliper/LabChip EZ Reader kinase assay)
Assay type: biochemical
Details: Table 1; CDK9/Cyclin T1 8 nM, ATP 2 mM, 15 min at 27° C.
Consider the following compounds and their measured IC50 readings.

Here is how some compounds turned out for IC50.
COMPOUND: O=C([C@H]1CC[C@H](Nc2ncc(C(F)(F)F)c(-c3c[nH]c4ccccc34)n2)CN1)N1CCCC1 [Compound 228]
REPORTED METRIC: IC50
ASSAY RESULT: 0.2 to 5 µM
//
COMPOUND: CC(=O)c1cnc(N[C@H]2CCCNC2)nc1-c1c[nH]c2ccccc12 [Compound 208]
REPORTED METRIC: IC50
ASSAY RESULT: > 5 µM
//
COMPOUND: O=S(=O)(c1ccc2c(-c3nc(N[C@H]4CCCNC4)ncc3C(F)(F)F)c[nH]c2c1)C(F)F [Compound 375]
REPORTED METRIC: IC50
ASSAY RESULT: 0.2 to 5 µM

Task: For CDK9/Cyclin T1 complex (Homo sapiens, UniProt P50750), give the measured IC50 of the entry Oc1ncccc1-c1ccc2c(-c3nc(N[C@H]4CCCNC4)ncc3C(F)(F)F)c[nH]c2c1 [Compound 310]
Result: > 5 µM

Task: For CDK9/Cyclin T1 complex (Homo sapiens, UniProt P50750), give the measured IC50 of the entry N#Cc1ccc2c(-c3nc(N[C@@H]4CNCC[C@H]4F)ncc3C(F)(F)F)c[nH]c2c1 [Compound 351]
Result: 0.2 to 5 µM

Task: For CDK9/Cyclin T1 complex (Homo sapiens, UniProt P50750), give the measured IC50 of the entry OCc1cccc(-c2ccc3c(-c4nc(N[C@H]5CCCNC5)ncc4C(F)(F)F)c[nH]c3c2)n1 [Compound 316]
Result: > 5 µM

Task: For CDK9/Cyclin T1 complex (Homo sapiens, UniProt P50750), give the measured IC50 of the entry C=Cc1cnc(N[C@H]2CCCNC2)nc1-c1c[nH]c2ccccc12 [Compound 218]
Result: 0.2 to 5 µM

Task: For CDK9/Cyclin T1 complex (Homo sapiens, UniProt P50750), give the measured IC50 of the entry CC(C)(O)CCc1ccc2c(-c3nc(N[C@H]4CCCNC4)ncc3C(F)(F)F)c[nH]c2c1 [Compound 242]
Result: 0.2 to 5 µM
